Biological target: T1, Rhesus D antigen (human, UniProt Q02161 2-417)
T1 construct: whole, on cells; Presented on RhD-positive erythrocytes in all assays; also called RhD; RhD antigen
T1 sequence (looked up): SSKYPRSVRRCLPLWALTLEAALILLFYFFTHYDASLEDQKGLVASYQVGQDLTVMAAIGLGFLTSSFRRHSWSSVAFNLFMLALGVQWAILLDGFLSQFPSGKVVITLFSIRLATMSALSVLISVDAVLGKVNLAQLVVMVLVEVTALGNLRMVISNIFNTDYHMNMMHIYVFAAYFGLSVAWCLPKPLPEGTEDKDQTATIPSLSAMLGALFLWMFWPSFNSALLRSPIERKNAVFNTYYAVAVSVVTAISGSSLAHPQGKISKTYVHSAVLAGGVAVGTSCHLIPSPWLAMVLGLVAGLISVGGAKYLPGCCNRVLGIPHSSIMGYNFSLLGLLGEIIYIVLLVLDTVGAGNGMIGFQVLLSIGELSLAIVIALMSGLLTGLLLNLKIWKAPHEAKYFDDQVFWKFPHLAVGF
Assay: agglutination assay, Fab on RhD(+)/RhD(-) RBC mix
READOUT TYPE: binding result

[
  {
    "BINDER": "RhD245.164E06 (Fab, V domains shown, Tested as Fab (periplasmic extract)) VH: EVQLVQSGGGVVQPGRSPRLSCAASGFTFSSYGMHWVRQAPGKGLEWVAFIWYDGSNKYYADSVKGRFTISRDNSKNTLYLQMNSLRAEDTAVYYCARDLRNHVFWSGYSTSFDYWGQGTLVTVSS VL: DIQMTQSPSSLSASVGDGITITCRASQSVRSYLNWYQQKPGKAPELLIYAASRLQSGVPSRFSGSGSGTDFTLTISSLQPEDFATYYCQHSYSTPVTFGQGTKVEVKR",
    "TEST VALUE": "binds"
  },
  {
    "BINDER": "RhD203.179F07 (Fab, V domains shown, Tested as Fab (periplasmic extract)) VH: EVQLVESGGGVVQPGRSLRLSCAASGFTFSNYGMHWVRQAPGKGLEWVAVIWYDGSNKYYADSVKGRFTISRDNSKNTLYLQMNSLRAEDTAVYYCAREMVSYSSSWYRRYYYYVMDVWGKGTTVTVSS VL: QSALTQPASVSGSPGQSITISCTATSSDIGAYNYVSWYQHHPGKAPKVIITDVNKRPSGVPDRFSGSKSGNTASLTISGLQPEDEAEYSCCSYAGTYSYVFGTGTKVTVLS",
    "TEST VALUE": "binds"
  }
]
